test system: AEK1 (Tb927.3.2440); test: percent reduction in TR-FRET probe signal relative to DMSO control; higher = stronger displacement of ATP-site probe (binding); conditions: 1 µM; incubation time 1 h
measured endpoint: percent reduction in TR-FRET probe signal (%)
Dear colleague, please return just the value in %, with no unit written.

Example molecules with recorded percent reduction in TR-FRET probe signal:
| substance smiles | target or test system | recorded result |
| --- | --- | --- |
| C/C(O)=C(\C#N)C(=O)Nc1cc(Br)ccc1Br | AEK1 (Tb927.3.2440) | -3.29 |
| CC(C)(C)c1cc(C=C(C#N)C#N)cc(C(C)(C)C)c1O | AEK1 (Tb927.3.2440) | 15.1 |
| Cn1cc(C2=C(c3cn(C4CCN(Cc5ccccn5)CC4)c4ccccc34)C(=O)NC2=O)c2ccccc21 | AEK1 (Tb927.3.2440) | -6.77 |
| Cc1ccccc1-n1c(Cn2ncc3c(N)ncnc32)nc2cccc(C)c2c1=O | AEK1 (Tb927.3.2440) | -5.42 |
| O=c1[nH]c2ccccc2n1C1CCN(Cc2ccc(-c3nc4cc5nc[nH]c5cc4nc3-c3ccccc3)cc2)CC1 | AEK1 (Tb927.3.2440) | -9.38 |

Entry `CC(C)(C)c1cc(C=C(C#N)C#N)cc(Br)c1O` , percent reduction in TR-FRET probe signal reported as 17.3

Entry `CCN1CCN(C(=O)Cc2ccc(Nc3ncc(F)c(Nc4ccc(C(=O)Nc5ccccc5Cl)cc4)n3)cc2)CC1` , percent reduction in TR-FRET probe signal reported as 24.1

Entry `N#CC(C#N)=Cc1ccc(O)c(O)c1` , percent reduction in TR-FRET probe signal reported as 7.98

Cited source: the supplement of paper PMC10720658
